target_or_system: P. falciparum apicoplast DNA polymerase (Pf-apPOL) (Plasmodium falciparum)
Sequence (Q8ILY1 entry or part of it): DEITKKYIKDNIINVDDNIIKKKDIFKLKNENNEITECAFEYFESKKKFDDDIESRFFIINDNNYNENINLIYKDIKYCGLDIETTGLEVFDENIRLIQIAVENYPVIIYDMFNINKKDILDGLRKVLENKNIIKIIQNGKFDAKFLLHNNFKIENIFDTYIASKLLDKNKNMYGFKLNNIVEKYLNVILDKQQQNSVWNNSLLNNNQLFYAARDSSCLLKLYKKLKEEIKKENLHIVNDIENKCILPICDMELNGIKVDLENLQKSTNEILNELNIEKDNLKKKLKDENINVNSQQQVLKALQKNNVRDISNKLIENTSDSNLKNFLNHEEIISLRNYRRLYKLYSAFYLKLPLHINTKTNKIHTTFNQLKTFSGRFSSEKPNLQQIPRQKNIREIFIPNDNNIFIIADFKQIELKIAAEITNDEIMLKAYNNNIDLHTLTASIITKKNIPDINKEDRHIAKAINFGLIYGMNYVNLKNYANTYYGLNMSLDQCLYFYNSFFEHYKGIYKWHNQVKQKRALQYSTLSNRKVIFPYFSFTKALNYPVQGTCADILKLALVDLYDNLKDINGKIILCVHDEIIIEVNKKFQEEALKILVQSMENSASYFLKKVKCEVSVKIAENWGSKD
assay_overview: Fluorescence-based high-throughput DNA polymerase assay (molecular beacon), primary screen and dose-response;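 further: test concentration in µM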
Type: biochemical
settings: DRC-2; concentration 40; 180'
Source text: The HT assay employs a molecular beacon, a stem-loop DNA template with a Cy3 dye and the Black Hole Quencher on the 3′ and 5′ ends of the DNA, respectively. Pf-apPOL concentration is based on a calculated absorptivity of ε280 = 56750 M^−1 cm^−1. […] To identify apPOL inhibitors we utilised our previously developed high-throughput DNA polymerase assay. […] The assay accurately recapitulates the kinetic behaviour of apPOL, as measured through more conventional low-throughput gel-based assays. […]
# reported % inhibition apPOL 180'; entries follow
Could you give me the number in %? Just the number is fine.

molecule	% inhibition apPOL 180' / %
CCc1ccccc1NC(=O)c1ccc(-c2ncccc2NC(C)=O)cc1 [KU0203112]	70
CCCN1COc2ccc3c(=O)c(-c4ccccc4)coc3c2C1 [KU0199556]	38
Cc1cc(C)nc(Nc2nc(CC(=O)Nc3nc(-c4ccco4)cs3)cs2)n1 [Molecule 92]	74
Cc1ccc(C2=N/C(=C\c3ccc(I)o3)C(=O)O2)cc1[N+](=O)[O-] [KU0073890]	77
O=[N+]([O-])c1ccc(SCc2ccco2)c2cccnc12 [KU0034480]	75

## Input Write down the reported % inhibition apPOL 180' of CCOc1ccc2cc(C3=NN(C(=O)CCC(=O)O)C(c4ccc(C)cc4)C3)c(=O)[nH]c2c1 (stereo not drawn) [KU0056200] , test system: P. falciparum apicoplast DNA polymerase (Pf-apPOL) (Plasmodium falciparum).
## Output 73

## Input What measured % inhibition apPOL 180' is associated with Cc1ccnc(NS(=O)(=O)c2ccc(-n3cccc3)cc2)n1 [KU0034899] on P. falciparum apicoplast DNA polymerase (Pf-apPOL) (Plasmodium falciparum)?
## Output 74

## Input Field: % inhibition apPOL 180' (P. falciparum apicoplast DNA polymerase (Pf-apPOL) (Plasmodium falciparum)). Entry: O=C(O)c1nc(-c2ccccc2)nc2c1OCO2 [Molecule 45, OC(=O)c1nc(nc2c1OCO2)c1ccccc1]
## Output 68

## Input What is its % inhibition apPOL 180' for P. falciparum apicoplast DNA polymerase (Pf-apPOL) (Plasmodium falciparum)? Entry: CCCCCc1c2c(cc(O)c1C(=O)O)OC(=O)c1c(cc(OC)cc1C(=O)CCCC)O2 [Molecule 24]
## Output 62
